- STUDY_TARGET: IGF-IIE (amino acids 1-104) (human) (UniProt P01344)
- Sequence (P01344 25-128 limits assumed, form in doubt): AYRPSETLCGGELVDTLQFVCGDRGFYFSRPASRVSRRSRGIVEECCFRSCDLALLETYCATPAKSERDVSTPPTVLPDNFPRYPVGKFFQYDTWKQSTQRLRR
- PROCEDURE_SUMMARY: SPR (Biacore T100): IgG captured on Protein G', ligand bound, then BP injected; competitor BP2
Would you mind telling me the reported competition score (0 = does not compete significantly, 5 = competes strongly) of each entry?
Write the answer as a number in score 0-5, unit excluded.

For M0070-H08 IgG (antibody, V domains shown) VH: EVQLLESGGGLVQPGGSLRLSCAASGFTFSRYWMIWVRQAPGKGLEWVSSIRSSGETKYADSVKGRFTISRDNSKNTLYLQMNSLRAEDTAVYYCARGPLSDYYDSSGYYFDAFDIWGQGTMVTVSS VL: DIQMTQSPSSLSASAGDRVTITCRASQSISSYLNWYQQKPGKAPNLLIYTTSNLQGGVPSRFSGSGSGTDFTLTISSLQPEDFATYYCQQGYSFPLTFGGGTKVEIK , write its competition score (0 = does not compete significantly, 5 = competes strongly).
2

For M0072-C06 IgG (antibody, V domains shown) VH: EVQLLESGGGLVQPGGSLRLSCAASGFTFSAYIMTWVRQAPGKGLEWVSSISPSGGYTVYADSVKGRFTISRDNSKNTLYLQMNSLRAEDTAVYYCARDSGFGDPFDYWGQGTMVTVSS VL: DIQMTQSPSSLSASVGDRVTITCRASQSIRNYLNWYQQKPGKAPKLLIYAASKLEDGVPSRFSGSGTGTDFTLTIRSLQPEDFASYFCQQSYSSPGITFGPGTKVEIK , write its competition score (0 = does not compete significantly, 5 = competes strongly).
2

For M0064-E04 IgG (antibody, V domains shown) VH: EVQLLESGGGLVQPGGSLRLSCAASGFTFSVYDMNWVRQAPGKGLEWVSSISSSGGGTLYADSVKGRFTISRDNSKNTLYLQMNSLRAEDTAVYYCARDSDTSSYYWYYDLWGRGTLVTVSS VL: DIQMTQSPSSLSASVGDRVTITCQASHDISNYLNWYQQKPGKAPKLLIYAASRLQSGVPSRFSGGGSGTDFSLTISSLQAEDFATYYCQQSYSFPRTFGQGTNLEIK , write its competition score (0 = does not compete significantly, 5 = competes strongly).
4

For M0063-F02 IgG (antibody, V domains shown) VH: EVQLLESGGGLVQPGGSLRLSCAASGFTFSKYEMDWVRQAPGKGLEWVSVISSSGGGTIYADSVKGRFTISRDNSKNTLYLQMNSLRAEDTAMYYCARGRTLYGGAFDIWGQGTMVTVSS VL: DIQMTQSPSSLSASVGDRVTITCRASQPINTYLNWYQQRPGKAPRILIYTSSTLQSGVPSRFSGSGSGTDFTLTISSVQPEDFATYYCQQSYSFPLTFGGGTKVEIK , write its competition score (0 = does not compete significantly, 5 = competes strongly).
1

These data points were gathered from patent US20110262446A1.
